The following compounds are shown together with reported viability, T/C values.
System: 422866-222-R5-J1-PDC complex spheroid viability
Experiment: Anticancer human tumor 422866-222-R5-J1-PDC patient-derived pancreatic adenocarcinoma cell line growth inhibition [POLQ]
Details: second compound 0.316 µM; first compound 3.16 µM; stronger effect = lower value
measured endpoint: viability, T/C (%)

compound	measured endpoint	unit descriptor	result number
Nc1ccn(C2OC(CO)C(O)C2(F)F)c(=O)n1 (stereo not given) + Nc1ccc(C#CCN(C(=O)Cc2ncc(C(F)(F)F)cc2C(F)(F)F)c2ccc(F)cc2)nn1	viability, T/C	%	33.2
COc1ccc([C@@H](O)c2cc(-c3ncnc4cc(N5CCOCC5)ccc34)c(F)cc2Cl)nn1 + COC1C(OC(N)=O)C(O)C(Oc2ccc3c(O)c(NC(=O)c4ccc(O)c(CC=C(C)C)c4)c(=O)oc3c2C)OC1(C)C	viability, T/C	%	41.2
CCc1cc2c(N3CCc4c(cc(Cn5ccnc5)cc4-c4cn(C)nc4C(F)(F)F)C3=O)ccnc2c(OC)n1 + Nc1ccc(C#CCN(C(=O)Cc2ncc(C(F)(F)F)cc2C(F)(F)F)c2ccc(F)cc2)nn1	viability, T/C	%	98.9
O=C(Nc1ccc(O)c(NS(=O)(=O)c2ccc(F)cc2)c1)c1ccc(-c2ccccc2)cc1 + Cc1cccc(N(C)C(=O)C2C(O)CCN2c2nc(C)cc(C(F)(F)F)c2C#N)c1	viability, T/C	%	90.7
O=C(Nc1ccc(O)c(NS(=O)(=O)c2ccc(F)cc2)c1)c1ccc(-c2ccccc2)cc1 + Nc1ccc(C#CCN(C(=O)Cc2ncc(C(F)(F)F)cc2C(F)(F)F)c2ccc(F)cc2)nn1	viability, T/C	%	97.3

* * *

Tested on: 422866-222-R5-J1-PDC complex spheroid viability
Test: Anticancer human tumor 422866-222-R5-J1-PDC cell line growth inhibition [POLQ];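 also: spheroids exposed to compounds for one week before readout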
Settings: curve of first compound; second compound 1 µM
The following compounds are shown together with reported IC50 values.

compound	IC50
CC1COCCN1c1cc(-c2ccnn2C)c2ccnc(-c3ccn[nH]3)c2n1 (stereo not given) + Cc1cccc(N(C)C(=O)C2C(O)CCN2c2nc(C)cc(C(F)(F)F)c2C#N)c1	> 10 µM
CCCS(=O)(=O)Nc1ccc(F)c(C(=O)c2c[nH]c3ncc(-c4ccc(Cl)cc4)cc23)c1F + Nc1ccc(C#CCN(C(=O)Cc2ncc(C(F)(F)F)cc2C(F)(F)F)c2ccc(F)cc2)nn1	> 10 µM
Cn1ncnc1[C@H]1c2n[nH]c(=O)c3cc(F)cc(c23)N[C@@H]1c1ccc(F)cc1 + Cc1cccc(N(C)C(=O)C2C(O)CCN2c2nc(C)cc(C(F)(F)F)c2C#N)c1	> 0.1 µM
COc1cc2cc(C(=O)CCC(=O)O)sc2cc1OC + Nc1ccc(C#CCN(C(=O)Cc2ncc(C(F)(F)F)cc2C(F)(F)F)c2ccc(F)cc2)nn1	> 10 µM
Cn1ncnc1[C@H]1c2n[nH]c(=O)c3cc(F)cc(c23)N[C@@H]1c1ccc(F)cc1 + COC1C(OC(N)=O)C(O)C(Oc2ccc3c(O)c(NC(=O)c4ccc(O)c(CC=C(C)C)c4)c(=O)oc3c2C)OC1(C)C	> 0.1 µM
C#Cc1c(F)ccc2cc(O)cc(-c3ncc4c(N5CC6CCC(C5)N6)nc(OCC56CCCN5CC(F)C6)nc4c3F)c12 (stereo not given) + Nc1ccc(C#CCN(C(=O)Cc2ncc(C(F)(F)F)cc2C(F)(F)F)c2ccc(F)cc2)nn1	0.75 µM
CC1COCCN1c1cc(-c2ccnn2C)c2ccnc(-c3ccn[nH]3)c2n1 (stereo not given) + COC1C(OC(N)=O)C(O)C(Oc2ccc3c(O)c(NC(=O)c4ccc(O)c(CC=C(C)C)c4)c(=O)oc3c2C)OC1(C)C	> 10 µM
C=CC(=O)N1CCN(c2nc(=O)n(-c3c(C)ccnc3C(C)C)c3nc(-c4c(O)cccc4F)c(F)cc23)C(C)C1 (stereo not given) + COC1C(OC(N)=O)C(O)C(Oc2ccc3c(O)c(NC(=O)c4ccc(O)c(CC=C(C)C)c4)c(=O)oc3c2C)OC1(C)C	< 0.0316 µM
COc1cccc(OCCCN)c1-c1cc(Nc2cnc(C#N)cn2)n[nH]1 + Nc1ccc(C#CCN(C(=O)Cc2ncc(C(F)(F)F)cc2C(F)(F)F)c2ccc(F)cc2)nn1	0.00589 µM
C=CCn1c(=O)c2cnc(Nc3ccc(N4CCN(C)CC4)cc3)nc2n1-c1cccc(C(C)(C)O)n1 + Nc1ccc(C#CCN(C(=O)Cc2ncc(C(F)(F)F)cc2C(F)(F)F)c2ccc(F)cc2)nn1	0.311 µM
O=C(Nc1ccc(O)c(NS(=O)(=O)c2ccc(F)cc2)c1)c1ccc(-c2ccccc2)cc1 + Nc1ccc(C#CCN(C(=O)Cc2ncc(C(F)(F)F)cc2C(F)(F)F)c2ccc(F)cc2)nn1	> 10 µM
CC1COCCN1c1cc(C2(O)CC3CCC(C2)O3)c2cnn(-c3ccn[nH]3)c2n1 (stereo not given) + Cc1cccc(N(C)C(=O)C2C(O)CCN2c2nc(C)cc(C(F)(F)F)c2C#N)c1	> 10 µM
CC(=O)O[C@H]1C(=O)[C@@]2(C)[C@H]([C@H](OC(=O)c3ccccc3)[C@]3(O)C[C@H](OC(=O)[C@H](O)[C@@H](NC(=O)c4ccccc4)c4ccccc4)C(C)=C1C3(C)C)[C@]1(OC(C)=O)CO[C@@H]1C[C@@H]2O + COC1C(OC(N)=O)C(O)C(Oc2ccc3c(O)c(NC(=O)c4ccc(O)c(CC=C(C)C)c4)c(=O)oc3c2C)OC1(C)C	> 3 µM
COc1cc(C2c3cc4c(cc3C(OC3OC5COC(C)OC5C(O)C3O)C3COC(=O)C23)OCO4)cc(OC)c1O (stereo not given) + Nc1ccc(C#CCN(C(=O)Cc2ncc(C(F)(F)F)cc2C(F)(F)F)c2ccc(F)cc2)nn1	0.64 µM
O=C(c1cc(Cc2n[nH]c(=O)c3ccccc23)ccc1F)N1CCN(C(=O)C2CC2)CC1 + Cc1cccc(N(C)C(=O)C2C(O)CCN2c2nc(C)cc(C(F)(F)F)c2C#N)c1	> 10 µM
CCCS(=O)(=O)Nc1ccc(F)c(C(=O)c2c[nH]c3ncc(-c4ccc(Cl)cc4)cc23)c1F + Cc1cccc(N(C)C(=O)C2C(O)CCN2c2nc(C)cc(C(F)(F)F)c2C#N)c1	> 10 µM
CC1COCCN1c1cc(-c2ccnn2C)c2ccnc(-c3ccn[nH]3)c2n1 (stereo not given) + Nc1ccc(C#CCN(C(=O)Cc2ncc(C(F)(F)F)cc2C(F)(F)F)c2ccc(F)cc2)nn1	10 µM
C=CC(=O)N1CCN(c2nc(=O)n(-c3c(C)ccnc3C(C)C)c3nc(-c4c(O)cccc4F)c(F)cc23)C(C)C1 (stereo not given) + Nc1ccc(C#CCN(C(=O)Cc2ncc(C(F)(F)F)cc2C(F)(F)F)c2ccc(F)cc2)nn1	< 0.0316 µM
O=C(Nc1ccc(O)c(NS(=O)(=O)c2ccc(F)cc2)c1)c1ccc(-c2ccccc2)cc1 + COC1C(OC(N)=O)C(O)C(Oc2ccc3c(O)c(NC(=O)c4ccc(O)c(CC=C(C)C)c4)c(=O)oc3c2C)OC1(C)C	> 10 µM
CC1COCCN1c1cc(C2(S(C)(=N)=O)CC2)nc(-c2ccnc3[nH]ccc23)n1 (stereo not given) + Cc1cccc(N(C)C(=O)C2C(O)CCN2c2nc(C)cc(C(F)(F)F)c2C#N)c1	4.21 µM
